Assay target: T1, Anti-CD28 Fab (SEQ ID NOs: 696, 697)
T1 construct: In the phage ELISA the Fab was biotinylated and captured on neutravidin coated plates
T1 sequence (VH, as listed by the source, chain 1 of 2): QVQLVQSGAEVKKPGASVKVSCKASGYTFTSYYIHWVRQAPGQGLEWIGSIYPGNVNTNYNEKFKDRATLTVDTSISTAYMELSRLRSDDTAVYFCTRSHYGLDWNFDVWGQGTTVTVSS
T1 sequence (VL, as listed by the source, chain 2 of 2): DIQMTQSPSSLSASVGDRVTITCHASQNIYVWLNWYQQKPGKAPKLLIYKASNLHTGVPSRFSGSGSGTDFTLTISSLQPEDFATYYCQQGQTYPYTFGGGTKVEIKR
Experiment description: phage binding ELISA; Fab-coated wells pre-incubated with CD28 antigen as competitor, phage detected with anti-M13-HRP
Define the label as criterion met when Anti-CD28 Fab signal in the presence of CD28 is strictly less than 0.08 and as criterion not met in all remaining cases.

- Binder: "SCAAGATYEWPTCL (Peptide-92 library clone) [Phage-1686]"
  Class: "criterion met"
- Binder: "ECGWEPGQHWRVCF (Peptide-92 library clone) [Phage-1685]"
  Class: "criterion met"
- Binder: "LCEAGFNYDWPRCL (Peptide-92 library clone) [Phage-1683]"
  Class: "criterion met"
- Binder: "SCSAGAMWLWPECF (Peptide-92 library clone) [Phage-1688]"
  Class: "criterion met"
- Binder: "RCKAGVPYKWPMCL (Peptide-92 library clone) [Phage-1680]"
  Class: "criterion met"
- Binder: "TCAAGAKYVWPLCF (Peptide-92 library clone) [Phage-1682]"
  Class: "criterion not met"
- Binder: "TCAAGATWVWPTCF (Peptide-92 library clone) [Phage-1675]"
  Class: "criterion met"
- Binder: "WCSAVFSYQWPPCF (Peptide-92 library clone) [Phage-1689]"
  Class: "criterion met"
- Binder: "TCAAGATYEWPSCI (Peptide-92 library clone) [Phage-1681]"
  Class: "criterion not met"
- Binder: "SCAAGATYKWPACF (Peptide-92 library clone) [Phage-1687]"
  Class: "criterion met"
- Binder: "QCAAGFSYTWPECY (Peptide-92 library clone) [Phage-1678]"
  Class: "criterion not met"
- Binder: "WCAAFFHYPWPQCF (Peptide-92 library clone) [Phage-1679]"
  Class: "criterion met"
